Data credit: patent US11390894B2

Test system: pHCA
methodSummary: Percent conversion of substrate by E. coli cells expressing sulfotransferases
Format: cell-based, Escherichia coli
reportedConditions: 100 μM pHCA, M9 medium, overnight 37° C.

molecule	percent conversion of pHCA / %
SULT1A1 Sus scrofa domesticus: aryl sulfotransferase SULT1A1 Sus scrofa domesticus (SEQ ID NO: 4) (protein, listed as Sus scrofa) MEPVQDTYRPPLEYVKGVPLIKYFAEALGPLESFQAWPDDVLISTYPKSGTTWVSEILDLIYQGGDLQKCQRAPIFVRVPFLEFKIPGCPTGFELLKDTPAPRLLKTHLPLALLPQTLLDQKVKVVYVARNAKDVAVSYYHFYRMAKVHPNPGTWDSFLEDFMAGEVSYGSWYQHVQEWWELRHTHPVLYLFYEDMKENPKREIQKILEFVGRSLPEETVEDIVQHTSFQEMKNNAMTNYRTLPSDLLDHSISAFMRKGITGDWKSTFTVAQNERFEADYAEKMAGCNLRFRSEL	8
